Test system: Proteus mirabilis IFO 3849
Assay: Antibacterial activity, agar-dilution MIC, organism No. 19
Type: cell-based
Conditions: Proteus mirabilis, IFO3849; Organism No. 19, bouillon-agar; read-out: Minimum Inhibitory Concentration
Listed compounds paired with reported MIC

Example cases with answers are listed next.
- compound: "[C-]#[N+]C12CC3(/C=C/C(=O)OCc4cc([N+](=O)[O-])ccc4O)OC3C1O2 (stereo not drawn)"
  MIC: "> 200 mg/L"
- compound: "[C-]#[N+]C12CC3(/C=C/C(=O)O)OC3C1O2 (stereo not drawn) [α substituted acrylic acid, reference compound]"
  MIC: "12.5 mg/L"
- compound: "[C-]#[N+]C12CC3(/C=C/C(=O)Nc4ccc(OCCC)cc4)OC3C1O2 (stereo not drawn)"
  MIC: "> 200 mg/L"
- compound: "[C-]#[N+]C12CC3(/C=C/C(=O)Nc4cccc(C(F)(F)F)c4)OC3C1O2 (stereo not drawn)"
  MIC: "> 200 mg/L"
- compound: "[C-]#[N+]C12CC3(/C=C/C(=O)Nc4ccccc4C)OC3C1O2 (stereo not drawn)"
  MIC: "> 200 mg/L"
- compound: "[C-]#[N+]C12CC3(/C=C/C(=O)Nc4ccccc4N)OC3C1O2 (stereo not drawn)"
  MIC: "12.5 mg/L"

In the following, a different compound is considered.
In: For [C-]#[N+]C12CC3(/C=C/C(=O)Nc4nccs4)OC3C1O2 (stereo not drawn) , what is its reported MIC?
Out: > 200 mg/L

Value source: patent US4684664A
